target: Fibroblast growth factor 2 (Homo sapiens); assay: FGF2 binders on small-molecule microarrays, primary screen, biochemical, small-molecule microarray, 635/667 nm fluorescence (AID 1133); conditions: small-molecule microarray binding, FGF2, fluorescence 635/667; higher = more signal
Below, each entry is listed with its recorded composite z-score.
Write the value as a bare number.

Example molecules with recorded composite z-score:
| structure-smiles | value-observed |
| --- | --- |
| CCCc1cccc(=O)o1 | 0.223 |
| COC(=O)[C@@]1(Cc2ccccc2)[C@H]2c3cc(C(=O)N4CCCC4)n(Cc4cc(F)cc5c4OCOC5)c3C[C@H]2CN1C(=O)c1ccccc1 | -0.575 |

Switching to the query record.
So what does the record say about composite z-score for COC(=O)[C@H](Cc1ccccc1)N1CC(/C=C/C2CC2)=C[C@@H]1[C@@H](O)Cc1ccccc1 ? 0.418

---

Below, each entry is listed with its recorded z-score.
test: cell viability in Huh7 cells, primary screen, cytotoxicity control for HCV replication inhibitor project, CellTiter-Glo luminescence, basal, 48 h (AID 1143); settings: Huh7 HCV replicon, higher = more signal, called active from +8 up or from −8 down;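 further: Huh7 hepatoma cells carrying a hepatitis C replication reporter with no stimulus; test concentration not given here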
Write the value as a bare number.

| molecule | value-observed |
| --- | --- |
| COC(=O)[C@@]1(Cc2ccc(OC)cc2)[C@H]2c3cc(C(=O)N4CCCC4)n(CCc4cc5ccccc5[nH]4)c3C[C@H]2CN1C(=O)c1ccccc1 | -1.84 |
| CC(C)CN1C(=O)[C@@]2(Cc3ccccc31)c1ccccc1C(=O)N(Cc1ccccc1C(F)(F)F)[C@H]2c1ccc(CO)cc1 | -2.54 |
| CCOC(=CC(=O)OC)CC(O)c1cccc(Cl)c1 (stereo unspecified) | -3.84 |
| O=C1OCC=C[C@H]2OC34C=CCN(c5ccc(Cl)cc5)C(=O)[C@H]3N(CCCCCO)C(=O)[C@@H]4[C@@H]12 (stereo partly specified) | -0.116 |
| C=CCC(OC(C)=O)[C@@H]1[C@@H](N(Cc2ccc(-c3ccccc3)cc2)C(=O)c2cccc3ccccc23)c2cc(OCCCO)ccc2N1C(=O)Cc1ccc2ccccc2c1 (stereo partly specified) | -1.31 |
| CC(C)C(O)C1C=CC2C(=O)N(C)C(=O)C2N1Nc1ccccc1 (stereo unspecified) | 1.03 |
| CCOC(=O)C1=CC[C@@H](c2ccccc2C(F)(F)F)N(S(=O)(=O)c2ccc(C)cc2)C1 | -5.24 |
| O=C(O)[C@]1(Cc2ccccc2)N=C(c2ccc(OCCCO)cc2)O[C@@H]1c1ccccc1 | -1.14 |

So what does the record say about z-score for COCCCNC(=O)[C@@]1(Sc2ccc(C)cc2)CC(=O)N(Cc2cc(C(F)(F)F)cc(C(F)(F)F)c2)[C@@H]1c1ccc(CO)cc1 ? -0.418

---

Below, each entry is listed with its recorded composite z-score.
test: small-molecule microarray binders of probe aCHRDL2, primary screen, biochemical, biotinylated probe, 635/667 nm fluorescence (AID 1100); conditions: higher = more signal
Write the value as a bare number.

Example molecules with recorded composite z-score:
| molecule | composite z-score |
| --- | --- |
| COc1ccc([Si](C)(C)[C@H]2[C@H](CCO)O[C@@]3(C(=O)N(Cc4cccc(N5CCCCC5=O)c4)c4ccccc43)[C@@H]2C)cc1 | 0.0883 |
| O=C1O[C@@H](c2ccccc2)[C@@H](c2ccccc2)N2[C@@H](c3ccccc3OCCO)[C@]3(C(=O)Nc4ccc(C#CC5=CCCCC5)cc43)[C@@H](C(=O)NC[C@H](O)c3ccccc3)[C@H]12 | -0.149 |
| C[C@H]1C2=C3C(CC[C@H]4C(OCc5ccc(F)cc5C(F)(F)F)OC[C@](C)([C@@H]34)N(C(=O)OC(C)(C)C)C2)C2COC(=O)OCC21 (stereo not given in full) | 1.28 |

So what does the record say about composite z-score for COCCOC(=O)N1C(=O)[C@@]2(c3cc(C#CC4(O)CCCCCC4)ccc31)[C@H](C(N)=O)[C@H]1C(=O)O[C@H](c3ccccc3)[C@H](c3ccccc3)N1[C@@H]2c1ccccc1OCCO ? -0.423

Repeat with CC(C)OC(=O)CC(=O)CC(O)c1cccc(C#N)c1 (stereo not given) 1.04
